These data points were gathered from ChEMBL document CHEMBL3259603.

Test: Selectivity index, ratio of CC50 for rat L6 cells to IC50 for Plasmodium falciparum NF54
readout type: Ratio CC50/IC50

* CC(C)/N=C(\N)Nc1ccc(NC(=O)c2ccc(N/C(N)=N/C(C)C)cc2)cc1.Cl | 231
* CC/N=C(\N)Nc1ccc(NC(=O)Nc2ccc(N/C(N)=N/CC)cc2)cc1.Cl | 292
* CC/N=C(\N)Nc1ccc(NC(=O)c2ccc(N/C(N)=N/CC)cc2)cc1.Cl | 509
* CC(C)/N=C(\N)Nc1ccc(NC(=O)Nc2ccc(N/C(N)=N/C(C)C)cc2)cc1.Cl | 288
* C/N=C(\N)Nc1ccc(NC(=O)c2ccc(N/C(N)=N/C)cc2)cc1.Cl | 169
* C/N=C(\N)Nc1ccc(NC(=O)Nc2ccc(N/C(N)=N/C)cc2)cc1.Cl | 922
